assayTarget: human serum polyclonal antibodies
assayComment: cross-interaction chromatography (CIC), IgG column against blank column
valueType: IgG K' (column retention time ratio)
Give bare numbers.

Illustrative cases are given below, each with its answer.
anti-human MCT1 antibody Ab12 (antibody, human IgG1, kappa, V domains shown) VH: QVQLVQSGAEVKKPGASVKVSCTVSGRSLTNYHLVWVRQAPGQGLEWMGFIRSSGNTEYNSEFKSRVTMTRDTSTSTVYMELSSLRSEDTAVYYCARNRWYHGTYYSPGYYVMDAWGQGTLVTVSS VL: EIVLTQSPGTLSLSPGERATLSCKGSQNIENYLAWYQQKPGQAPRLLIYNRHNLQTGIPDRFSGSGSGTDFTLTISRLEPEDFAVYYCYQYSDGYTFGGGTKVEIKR : 0.07
anti-human MCT1 antibody Ab8 (antibody, human IgG1, kappa, V domains shown) VH: QVQLVQSGAEVKKPGASVKVSCTVSGRSLTNYHLQWVRQAPGQGLEWMGFIRSSGNTIYNSEFKSRVTMTRDTSTSTVYMELSSLRSEDTAVYYCARNRWYHGTYYSPGYYVMDAWGQGTLVTVSS VL: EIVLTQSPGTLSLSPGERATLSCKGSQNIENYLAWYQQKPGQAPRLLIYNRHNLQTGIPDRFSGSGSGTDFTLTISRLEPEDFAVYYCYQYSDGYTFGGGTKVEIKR : 0.07

Request: Look up IgG K' (column retention time ratio): anti-human MCT1 antibody Ab19 (antibody, human IgG1, kappa, V domains shown) VH: QVQLVQSGAEVKKPGASVKVSCTVSGRSLTNYHLQWVRQAPGQGLEWMGFIRRSGNTEYNSEFKSRVTMTRDTSTSTVYMELSSLRSEDTAVYYCARNRWYHGTYYSPGYYVMDAWGQGTLVTVSS VL: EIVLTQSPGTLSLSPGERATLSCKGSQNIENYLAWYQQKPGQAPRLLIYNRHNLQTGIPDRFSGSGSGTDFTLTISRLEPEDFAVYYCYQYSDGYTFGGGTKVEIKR
Result: 0.08
